Catalogue of EC50, receptor phosphorylation readings, one per entry.
Molecular target: human IGF-1 receptor (human, UniProt P08069 31-1367)
Test: cell-based or functional assay
Ends that are not written are not given here.
Number in nM, nothing else.

Guide cases for EC50, receptor phosphorylation, answers given:
Entry IGF-1 A:B(D10Y16L17) DPI A-COOH (ligand, ends and bridges not checked) chain 1: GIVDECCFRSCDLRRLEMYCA-OH chain 2: GPETLCGADLVDALYLVCGDRGFY-NH2 , EC50, receptor phosphorylation reported as 0.78

Per the record, IGF-1 A:B (H5D10Y16L17) DPI (ligand, cysteine pairing not given here) chain 1: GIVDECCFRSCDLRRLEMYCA-NH2 chain 2: GPEHLCGADLVDALYLVCGDRGFY-NH2 has EC50, receptor phosphorylation of 12.2

For this binder ( IGF-1 A (H8 A9 N21):B(H5D10Y16L17 A22) DPI A-COOH (ligand, not fully specified (C-terminus); ends and bridges not checked) chain 1: GIVDECCHASCDLRRLEMYCN-OH chain 2: GPEHLCGADLVDALYLVCGDAGFY ), measured EC50, receptor phosphorylation is 11.3

Attention now shifts to the item below.
EC50, receptor phosphorylation reported for this binder IGF-1 A (H8 A9 N21):B(H5D10Y16L17) DPI A-COOH (ligand, not fully specified (C-terminus); ends and bridges not checked) chain 1: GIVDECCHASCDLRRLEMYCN-OH chain 2: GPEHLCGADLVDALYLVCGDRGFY : 0.43
